# Substrate: NCCC[C@H](N)C(=O)O
# Experimental Details: purified protein
# Condition Description: 50 mM Tris pH 8.5, 20 °C, 20 mM NaCl, carbamoyl phosphate 5 mM
Property Name: Km (µM)

[[record]]
protein = "Escherichia coli ornithine transcarbamoylase (OTC), wild type, His-tagged (enzyme, E. coli, Anabolic ornithine transcarbamoylase of E. coli, argI gene, 333-residue subunit; Expressed from the ASKA plasmid pCA24N; also called WT OTC; anabolic OTC; source: E. coli BL21 (DE3) Tuner, purified (HisTrap FF, Superdex 200 SEC)) SGFYHKHFLKLLDFTPAELNSLLQLAAKLKADKKSGKEEAKLTGKNIALIFEKDSTRTRCSFEVAAYDQGARVTYLGPSGSQIGHKESIKDTARVLGRMYDGIQYRGYGQEIVETLAEYASVPVWNGLTNEFHPTQLLADLLTMQEHLPGKAFNEMTLVYAGDARNNMGNSMLEAAALTGLDLRLVAPQACWPEAALVTECRALAQQNGGNITLTEDVAKGVEGADFIYTDVWVSMGEAKEKWAERIALLREYQVNSKMMQLTGNPEVKFLHCLPAFHDDQTTLGKKMAEEFGLHGGMEVTDEVFESAASIVFDQAENRMHTIKAVMVATLSK"
result_value = 530

[[record]]
protein = "OTC (E. coli ornithine transcarbamoylase, argI) (Escherichia coli K-12; D141N) (protein, full length, uncleaved 6xHis tag, pCA24N ASKA clone, expressed in BL21(DE3) Tuner; homotrimer of 333-residue subunits) SGFYHKHFLKLLDFTPAELNSLLQLAAKLKADKKSGKEEAKLTGKNIALIFEKDSTRTRCSFEVAAYDQGARVTYLGPSGSQIGHKESIKDTARVLGRMYDGIQYRGYGQEIVETLAEYASVPVWNGLTNEFHPTQLLANLLTMQEHLPGKAFNEMTLVYAGDARNNMGNSMLEAAALTGLDLRLVAPQACWPEAALVTECRALAQQNGGNITLTEDVAKGVEGADFIYTDVWVSMGEAKEKWAERIALLREYQVNSKMMQLTGNPEVKFLHCLPAFHDDQTTLGKKMAEEFGLHGGMEVTDEVFESAASIVFDQAENRMHTIKAVMVATLSK"
result_value = 17000

[[record]]
protein = "OTC (E. coli ornithine transcarbamoylase, argI) (Escherichia coli K-12; R58A) (protein, full length, uncleaved 6xHis tag, pCA24N ASKA clone, expressed in BL21(DE3) Tuner; homotrimer of 333-residue subunits) SGFYHKHFLKLLDFTPAELNSLLQLAAKLKADKKSGKEEAKLTGKNIALIFEKDSTATRCSFEVAAYDQGARVTYLGPSGSQIGHKESIKDTARVLGRMYDGIQYRGYGQEIVETLAEYASVPVWNGLTNEFHPTQLLADLLTMQEHLPGKAFNEMTLVYAGDARNNMGNSMLEAAALTGLDLRLVAPQACWPEAALVTECRALAQQNGGNITLTEDVAKGVEGADFIYTDVWVSMGEAKEKWAERIALLREYQVNSKMMQLTGNPEVKFLHCLPAFHDDQTTLGKKMAEEFGLHGGMEVTDEVFESAASIVFDQAENRMHTIKAVMVATLSK"
result_value = 440

